recorded metric: melting point

Solved entries (count: 3):
# structure as smiles, melting point
measured = [
    ("COc1cc(Oc2ccc3[nH]c(N)c(C#N)c3c2)cc(OC)c1OC", "208 to 209 °C"),
    ("COc1ccc(Oc2ccc3[nH]c(N)c(C#N)c3c2)cc1", "216 to 217 °C"),
    ("N#Cc1c(N)[nH]c2ccc(Sc3ccc(O)cc3)cc12", "241 to 242 °C"),
]

Proceeding to the next compound to report its melting point.
Request: Consider the compound shown here: "COc1ccc(Sc2ccc3[nH]c(N)c(C#N)c3c2)cc1OC" What is its recorded melting point?
Response: 169 to 173 °C
